- System: oxazolone-induced mouse ear swelling
- methodDescription: Model for inhibition of topical inflammation (oxazolone-induced mouse ear swelling)
- Type: in vivo, BALB/c male mice
- assaySetup: topical to right ear, dose 2 × 0.3 mg; ear thickness 24 hours after oxazolone challenge
Entry flag: 1 if % Inh. reaches 20%; -1 if it does not.

>  <compound>
CC(C)c1c(C(=O)Nc2ccccc2)c(-c2ccccc2)c(-c2ccc(F)cc2)n1CC[C@@H](O)C[C@@H](O)CC(=O)O [Atorvastatin sodium]

>  <class>
-1

$$$$
>  <compound>
CC[C@H](C)C(=O)O[C@H]1C[C@H](O)C=C2C=C[C@H](C)[C@H](CC[C@@H](O)C[C@@H](O)CC(=O)O)[C@H]21 [Pravastatin sodium]

>  <class>
1

$$$$
>  <compound>
CC(C)n1c(/C=C/C(O)CC(O)CC(=O)O)c(-c2ccc(F)cc2)c2ccccc21 (stereo not shown) [Fluvastatin sodium]

>  <class>
1

$$$$
>  <compound>
COc1ccc2c(c1)c(CC(=O)O)c(C)n2C(=O)c1ccc(Cl)cc1

>  <class>
1

$$$$
>  <compound>
CC(C)c1c(C(=O)Nc2ccccc2)c(-c2ccccc2)c(-c2ccc(F)cc2)n1CC[C@@H]1C[C@@H](O)CC(=O)O1

>  <class>
1

$$$$
>  <compound>
O=C([O-])C[C@H](O)C[C@H](O)/C=C/c1c(C2CC2)nc2ccccc2c1-c1ccc(F)cc1.O=C([O-])C[C@H](O)C[C@H](O)/C=C/c1c(C2CC2)nc2ccccc2c1-c1ccc(F)cc1.[Ca+2]

>  <class>
-1

$$$$
